FYI, the data here is from patent US20080318947A1.

Recorded measurements of IC50, one per entry
Biological target: AKT2 (Homo sapiens)
Construct: His-tagged AKT2 (aa 138-481) and His-tagged AKT3 (aa 135-479) are isolated; His
Sequence (P31751 138-481): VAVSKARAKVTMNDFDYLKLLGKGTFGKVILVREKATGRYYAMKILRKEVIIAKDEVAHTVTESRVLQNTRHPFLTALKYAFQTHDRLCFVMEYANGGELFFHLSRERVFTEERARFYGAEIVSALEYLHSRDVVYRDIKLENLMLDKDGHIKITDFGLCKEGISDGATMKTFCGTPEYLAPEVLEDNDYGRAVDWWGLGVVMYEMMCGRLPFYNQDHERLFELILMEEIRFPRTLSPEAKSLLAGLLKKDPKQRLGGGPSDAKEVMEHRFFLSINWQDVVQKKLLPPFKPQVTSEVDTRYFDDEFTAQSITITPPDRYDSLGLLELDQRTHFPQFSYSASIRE
Experiment: AKT enzyme assay (substrate phosphorylation, SPA)
Conditions: 10 nM activated AKT enzyme, 4 uM ATP, 8 uM peptide, 40 minutes at room temperature; read-out: IC50 value against AKT2

Answered cases to consult:
>  <molecule>
CCn1c(-c2nonc2N)nc2c(C#CC(C)(C)O)nc(OC(CN)c3ccccc3Cl)cc21 (stereo not drawn)

>  <IC50>
≤ 500 nM

$$$$
>  <molecule>
CCn1c(-c2nonc2N)nc2c(C#CC(C)(C)O)nc(OC(CN)c3cccc4c3OCO4)cc21 (racemic) [Example 92]

>  <IC50>
≤ 500 nM

$$$$
>  <molecule>
CCn1c(-c2nonc2N)nc2c(C#CC(C)(C)O)nc(OC(CN)c3cccc(OC)c3)cc21 (stereo not drawn)

>  <IC50>
≤ 500 nM

$$$$
>  <molecule>
CCn1c(-c2nonc2N)nc2c(C#CC(C)(C)O)nc(OC(CN)c3cccc4c3OCO4)cc21 (single isomer, unassigned) [Example 93]

>  <IC50>
≤ 500 nM

$$$$
>  <molecule>
CCn1c(-c2nonc2N)nc2c(C#CC(C)(C)O)nc(OC(CN)c3cccc(Cl)c3)cc21 (stereo not drawn)

>  <IC50>
≤ 500 nM

$$$$

The molecule identified as CCn1c(-c2nonc2N)nc2c(C#CC(C)(C)O)nc(OC(CN)C3CCCCC3)cc21 (single isomer, unassigned) registered its IC50 at ≤ 500 nM

The molecule identified as CCn1c(-c2nonc2N)nc2c(C#CC(C)(C)O)nc(OC(CN)Cc3ccccc3)cc21 (stereo not drawn) registered its IC50 at ≤ 500 nM

The molecule identified as CCn1c(-c2nonc2N)nc2c(C#CC(C)(C)O)nc(O[C@@H](c3ccccc3)[C@H]3CCCN3)cc21 registered its IC50 at ≤ 500 nM

The molecule identified as CCn1c(-c2nonc2N)nc2c(C#CC(C)(C)O)nc(OC[C@H](N)Cc3ccccc3Cl)cc21 registered its IC50 at ≤ 500 nM
